Test system: SW1271 complex spheroids with HUVEC/MSC, growth, % test/control
Assay: Anticancer human tumor SW1271 cell line growth inhibition [AhR];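 note: spheroids exposed to agents for 7 days before readout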
Conditions: second compound 0.316 µM; first compound 1 µM; active compounds read low
Text: Multicellular complex tumor spheroid response to aryl hydrocarbon receptor antagonists in combination with a variety of drugs and investigational agents in selected tumor cell lines […] Compounds. […] If the clinical Cmax for an agent had not been determined, the highest concentration tested was 10 microM (Table 1). […]
Measure name: viability, T/C (%)
One number for each entry, in %.

Molecule: Nc1ccccc1NC(=O)c1ccc(CNC(=O)OCc2cccnc2)cc1 + Cc1cncc(-c2nc(NCCc3c[nH]c4ccccc34)c3ncn(C(C)C)c3n2)c1
Target or system: SW1271 complex spheroids with HUVEC/MSC, growth, % test/control
viability, T/C / %: 62.9

For each of the items listed, what is its viability, T/C?
1. COc1cc(Nc2ncc3c(n2)-c2ccc(Cl)cc2C(c2c(F)cccc2OC)=NC3)ccc1C(=O)O + Cc1cncc(-c2nc(NCCc3c[nH]c4ccccc34)c3ncn(C(C)C)c3n2)c1
2. COc1ccc([C@@H](O)c2cc(-c3ncnc4cc(N5CCOCC5)ccc34)c(F)cc2Cl)nn1 + Cc1ccccc1N=Nc1ccc(NC(=O)c2ccnn2C)c(C)c1

Solution:
1. 91
2. 65
